The origin of these recorded values is paper PMC11472053.

Molecular target: BANP BEN WT (human)
Sequence: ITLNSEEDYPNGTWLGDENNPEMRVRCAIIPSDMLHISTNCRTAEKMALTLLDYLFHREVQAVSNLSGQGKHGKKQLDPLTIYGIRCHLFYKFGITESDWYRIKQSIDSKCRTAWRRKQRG
Assay: ITC
Details: 5-methyl-C at positions 5 and 7 of each strand (fully methylated); ITC: 20 mM Tris pH 7.5, 200 mM NaCl, 2 mM beta-mercaptoethanol, 20 C; EMSA: 20 mM Tris pH 7.0, 200 mM NaCl, 2 mM DTT, 4 C, 1.2% agarose in TAE

| Input Sequence | Kd, µM |
| --- | --- |
| ATCTCGCGAGAT (double strand) [12-mCGmCG] | 5.7 |
